# Species on record: Rattus norvegicus
# MEASUREMENT DESCRIPTION: Open TG-GATES - Regimen: Single
# Format: toxicity, organism-based, Sprague-Dawley
# Set-up: regimen Single, gender Male, age 6 weeks
# CONDITIONS USED: in vivo, po, 0 mg/kg, 3 h, tissue Blood, route gavage, dose level Control
Give measured MCHC for each item. Keep answers brief.
Numbers only, in %.

Look over these answered cases.
{"MOLECULE": "O=NN(CCCl)C(=O)NC1CCCCC1 [LOMUSTINE]", "MCHC, %": 32.9}
{"MOLECULE": "CC(C)N(CCC(C(N)=O)(c1ccccc1)c1ccccn1)C(C)C (centres undefined) [DISOPYRAMIDE]", "MCHC, %": 32.1}
{"MOLECULE": "CC[C@H]1[C@@H]2C[C@H]3[C@@H]4N(C)c5ccccc5[C@]45C[C@@H]([C@@H]2[C@H]5O)N3[C@@H]1O [AJMALINE]", "MCHC, %": 32.9}

Reported MCHC for CC1=C(CC(=O)O)c2cc(F)ccc2/C1=C\c1ccc([S+](C)[O-])cc1 (centres undefined) was 33.1

---

# Species: Rattus norvegicus
# MEASUREMENT DESCRIPTION: Open TG-GATES - Regimen: Single
# Type: toxicity, organism-based, Sprague-Dawley
# Parameters: regimen Single, gender Male, age 6 weeks
# CONDITIONS USED: in vivo, po, 0 mg/kg, 9 h, tissue Blood, route gavage, dose level Control
QUANTITY MEASURED: WBC (x10_2/uL)
One number for each entry, in x10_2/uL.

Please review the following examples before continuing.
{"COMPOUND": "O=NN(CCCl)C(=O)NC1CCCCC1", "QUANTITY MEASURED": "WBC", "READOUT UNIT": "x10_2/uL", "ASSAY RESULT": 91.5}
{"COMPOUND": "CN(C)C(=N)N=C(N)N", "QUANTITY MEASURED": "WBC", "READOUT UNIT": "x10_2/uL", "ASSAY RESULT": 75.6}
{"COMPOUND": "CC[C@H]1[C@@H]2C[C@H]3[C@@H]4N(C)c5ccccc5[C@]45C[C@@H]([C@@H]2[C@H]5O)N3[C@@H]1O", "QUANTITY MEASURED": "WBC", "READOUT UNIT": "x10_2/uL", "ASSAY RESULT": 93.3}
{"COMPOUND": "CCC1(c2ccccc2)C(=O)NC(=O)NC1=O", "QUANTITY MEASURED": "WBC", "READOUT UNIT": "x10_2/uL", "ASSAY RESULT": 93.6}

Continue with the compound presented below.
Reported WBC for OCCOCCN1CCN(C(c2ccccc2)c2ccc(Cl)cc2)CC1 (stereo not given) [HYDROXYZINE] was 82.7

---

# Species: Rattus norvegicus
# MEASUREMENT DESCRIPTION: Open TG-GATES - Regimen: Single
# Assay type: toxicity, organism-based, Sprague-Dawley
# Design: regimen Single, gender Male, age 6 weeks
# CONDITIONS USED: in vivo, po, 0 mg/kg, 3 h, route gavage, dose level Control
Consider the following molecules; for each one, report its TERMINAL_BW.
Numbers only, in g.

{"MOLECULE": "O=NN(CCCl)C(=O)NC1CCCCC1", "ASSAY RESULT": 205.6}
{"MOLECULE": "CCC1(c2ccccc2)C(=O)NC(=O)NC1=O", "ASSAY RESULT": 221.7}
{"MOLECULE": "ClC(Cl)(Cl)Cl [CARBON TETRACHLORIDE]", "ASSAY RESULT": 204.7}
{"MOLECULE": "CC1=C(CC(=O)O)c2cc(F)ccc2/C1=C\\c1ccc([S+](C)[O-])cc1 (stereo not given)", "ASSAY RESULT": 203.6}
{"MOLECULE": "OCCOCCN1CCN(C(c2ccccc2)c2ccc(Cl)cc2)CC1 (stereo not given) [HYDROXYZINE]", "ASSAY RESULT": 191.8}

Look up TERMINAL_BW for the entries below, preserving their order.
1. CC[C@H]1[C@@H]2C[C@H]3[C@@H]4N(C)c5ccccc5[C@]45C[C@@H]([C@@H]2[C@H]5O)N3[C@@H]1O
2. CN(C)CCC=C1c2ccccc2COc2ccccc21 [DOXEPIN]
3. CN(C)C(=N)N=C(N)N
4. CCc1oc2ccccc2c1C(=O)c1cc(Br)c(O)c(Br)c1
5. CC(C)N(CCC(C(N)=O)(c1ccccc1)c1ccccn1)C(C)C (stereo not given) [DISOPYRAMIDE]

A.
1. 194.6
2. 197.6
3. 200.9
4. 217.1
5. 207.1

---

For each record, write down the corresponding Bas.
# Species on record: Rattus norvegicus
# MEASUREMENT DESCRIPTION: Open TG-GATES - Regimen: Single
# Format: toxicity, organism-based, Sprague-Dawley
# Set-up: regimen Single, gender Male, age 6 weeks
# CONDITIONS USED: in vivo, po, 0 mg/kg, 3 h, tissue Blood, route gavage, dose level Control
One number for each entry, in %.

{"COMPOUND": "CC1=C(CC(=O)O)c2cc(F)ccc2/C1=C\\c1ccc([S+](C)[O-])cc1 (stereo not given)", "READOUT UNIT": "%", "Bas": 0.2}
{"COMPOUND": "CC[C@H]1[C@@H]2C[C@H]3[C@@H]4N(C)c5ccccc5[C@]45C[C@@H]([C@@H]2[C@H]5O)N3[C@@H]1O", "READOUT UNIT": "%", "Bas": 0}
{"COMPOUND": "CN(C)C(=N)N=C(N)N", "READOUT UNIT": "%", "Bas": 0}
{"COMPOUND": "CN(C)CCC=C1c2ccccc2COc2ccccc21 [DOXEPIN]", "READOUT UNIT": "%", "Bas": 0}

Please find the next compound below.
Measured Bas of CCc1oc2ccccc2c1C(=O)c1cc(Br)c(O)c(Br)c1 : 0

---

Record form. Attribute: PL. Fill in for each entry.
# Species on record: Rattus norvegicus
# MEASUREMENT DESCRIPTION: Open TG-GATES - Regimen: Daily Repeat
# Assay type: toxicity, organism-based, Sprague-Dawley
# Parameters: regimen Daily Repeat, gender Male, age 6 weeks
# CONDITIONS USED: in vivo, po, 0 mg/kg, 72 h, tissue Plasma, route gavage, dose level Control, time 3 day
Answers are plain numbers, in mg/dL.

Below: 5 molecules and their reported PL.
{"MOLECULE": "CC[C@H]1[C@@H]2C[C@H]3[C@@H]4N(C)c5ccccc5[C@]45C[C@@H]([C@@H]2[C@H]5O)N3[C@@H]1O", "PL (mg/dL)": 152.6}
{"MOLECULE": "CC(C)N(CCC(C(N)=O)(c1ccccc1)c1ccccn1)C(C)C (stereo unspecified) [DISOPYRAMIDE]", "PL (mg/dL)": 140.4}
{"MOLECULE": "CCC1(c2ccccc2)C(=O)NC(=O)NC1=O", "PL (mg/dL)": 158.6}
{"MOLECULE": "O=NN(CCCl)C(=O)NC1CCCCC1", "PL (mg/dL)": 147.6}
{"MOLECULE": "CC1=C(CC(=O)O)c2cc(F)ccc2/C1=C\\c1ccc([S+](C)[O-])cc1 (stereo unspecified)", "PL (mg/dL)": 160.8}

Kindly give each listed record's PL.
1. OCCOCCN1CCN(C(c2ccccc2)c2ccc(Cl)cc2)CC1 (stereo unspecified) [HYDROXYZINE]
2. CN(C)C(=N)N=C(N)N
3. ClC(Cl)(Cl)Cl [CARBON TETRACHLORIDE]
4. CCCCc1oc2ccccc2c1C(=O)c1cc(I)c(OCCN(CC)CC)c(I)c1
5. CCc1oc2ccccc2c1C(=O)c1cc(Br)c(O)c(Br)c1
6. CN(C)CCC=C1c2ccccc2COc2ccccc21 [DOXEPIN]

A.
1: 148.4; 2: 143.6; 3: 155.4; 4: 162.4; 5: 156.8; 6: 143

---

# Organism: Rattus norvegicus
# MEASUREMENT DESCRIPTION: Open TG-GATES - Regimen: Single
# Type: toxicity, organism-based, Sprague-Dawley
# Parameters: regimen Single, gender Male, age 6 weeks
# CONDITIONS USED: in vivo, po, 0 mg/kg, 24 h, tissue Blood, route gavage, dose level Control
QUANTITY MEASURED: RBC (x10_4/ul)
Answers are plain numbers, in x10_4/ul.

See these solved cases before continuing.
{"COMPOUND": "O=NN(CCCl)C(=O)NC1CCCCC1", "RBC / x10_4/ul": 578.2}
{"COMPOUND": "CN(C)CCC=C1c2ccccc2COc2ccccc21 [DOXEPIN]", "RBC / x10_4/ul": 600.2}
{"COMPOUND": "CC(C)N(CCC(C(N)=O)(c1ccccc1)c1ccccn1)C(C)C (stereo unspecified) [DISOPYRAMIDE]", "RBC / x10_4/ul": 629.4}
{"COMPOUND": "CC[C@H]1[C@@H]2C[C@H]3[C@@H]4N(C)c5ccccc5[C@]45C[C@@H]([C@@H]2[C@H]5O)N3[C@@H]1O", "RBC / x10_4/ul": 584.2}
{"COMPOUND": "OCCOCCN1CCN(C(c2ccccc2)c2ccc(Cl)cc2)CC1 (stereo unspecified) [HYDROXYZINE]", "RBC / x10_4/ul": 609.2}

Below are 5 compounds. Give each one its RBC.
1. CN(C)C(=N)N=C(N)N
2. CCc1oc2ccccc2c1C(=O)c1cc(Br)c(O)c(Br)c1
3. CCC1(c2ccccc2)C(=O)NC(=O)NC1=O
4. CC1=C(CC(=O)O)c2cc(F)ccc2/C1=C\c1ccc([S+](C)[O-])cc1 (stereo unspecified)
5. ClC(Cl)(Cl)Cl [CARBON TETRACHLORIDE]

A.
1. 595.2
2. 650
3. 637.2
4. 654.6
5. 607.2

According to the records, this compound O=NN1CCOCC1 displays RBC of 619.4
